Listed binders paired with reported EC50
# system: DLL4 (human, UniProt Q9NR61)
# Sequence (Q9NR61 27-524): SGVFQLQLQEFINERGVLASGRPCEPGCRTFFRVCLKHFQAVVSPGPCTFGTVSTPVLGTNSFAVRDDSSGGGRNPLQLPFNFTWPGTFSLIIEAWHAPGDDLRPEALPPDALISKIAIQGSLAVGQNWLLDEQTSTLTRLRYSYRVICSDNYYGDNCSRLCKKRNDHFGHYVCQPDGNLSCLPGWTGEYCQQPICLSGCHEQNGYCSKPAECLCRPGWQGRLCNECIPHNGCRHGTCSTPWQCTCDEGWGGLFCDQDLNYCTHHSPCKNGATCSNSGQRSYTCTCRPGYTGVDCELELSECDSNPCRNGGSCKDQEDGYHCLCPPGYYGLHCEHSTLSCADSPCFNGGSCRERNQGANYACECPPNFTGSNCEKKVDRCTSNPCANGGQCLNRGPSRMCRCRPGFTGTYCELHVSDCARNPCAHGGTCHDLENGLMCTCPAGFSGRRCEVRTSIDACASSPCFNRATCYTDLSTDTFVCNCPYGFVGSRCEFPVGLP
# assay-overview: ELISA
Your answer is read as nM, so omit the unit and give the number.

These recorded examples may help you get a feel for the data.
binder: DVD487 DLL4 arm (antibody, V domains shown, DVD-Ig outer) VH: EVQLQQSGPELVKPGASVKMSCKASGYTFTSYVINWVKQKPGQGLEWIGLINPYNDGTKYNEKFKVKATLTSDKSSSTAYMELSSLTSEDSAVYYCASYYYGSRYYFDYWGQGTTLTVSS VL: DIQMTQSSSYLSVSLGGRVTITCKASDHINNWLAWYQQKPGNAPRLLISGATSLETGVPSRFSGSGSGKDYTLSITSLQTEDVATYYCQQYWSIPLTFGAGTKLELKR
value-measured: 0.14
//
binder: DVD523 DLL4 arm (antibody, V domains shown, DVD-Ig outer) VH: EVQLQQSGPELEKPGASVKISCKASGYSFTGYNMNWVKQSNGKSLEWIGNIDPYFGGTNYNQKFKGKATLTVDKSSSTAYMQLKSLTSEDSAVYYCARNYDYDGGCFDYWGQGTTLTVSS VL: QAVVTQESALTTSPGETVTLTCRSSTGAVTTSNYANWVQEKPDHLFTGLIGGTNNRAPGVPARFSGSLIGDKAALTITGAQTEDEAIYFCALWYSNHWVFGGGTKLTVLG
value-measured: 0.09

Next item in the queue.
// recorded EC50 for DVD491 DLL4 arm (antibody, V domains shown, DVD-Ig outer) VH: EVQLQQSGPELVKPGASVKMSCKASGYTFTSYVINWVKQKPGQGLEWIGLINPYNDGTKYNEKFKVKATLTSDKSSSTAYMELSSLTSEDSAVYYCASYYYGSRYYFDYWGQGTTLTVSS VL: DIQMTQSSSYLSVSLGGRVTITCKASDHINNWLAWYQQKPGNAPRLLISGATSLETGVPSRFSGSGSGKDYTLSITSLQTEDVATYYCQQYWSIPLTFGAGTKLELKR : 0.39
